Where do the numbers come from? From the NIST ThermoML archive (doi:10.1021/je7007632).

Assay: refractive index (Na D-line) (dimensionless)
Details: 308.15 K; 101.33 kPa; Liquid; Standard Abbe refractometry
assay_endpoint: refractive index
Answers are plain numbers.

// worked examples, refractive index included
compound="NC=O [formamide]" readout_value=1.4451
compound="CC(O)CCO (stereo not given)" readout_value=1.4349
compound=CCCCO readout_value=1.3933
compound="CCC(C)O (stereo not given)" readout_value=1.3911

Shift focus to the following entry.
Entry under review: "OCCCCO" . Reported refractive index?
1.4391

---

Assay: refractive index (Na D-line) (dimensionless)
Conditions: 298.15 K; 101.33 kPa; Liquid; Standard Abbe refractometry
assay_endpoint: refractive index
Numbers only.

Reference set (4 entries):
compound="CCC(C)O (stereo not given)" readout_value=1.3951
compound="NC=O [formamide]" readout_value=1.4467
compound="CC(O)CCO (stereo not given)" readout_value=1.4391
compound=CCCCO readout_value=1.3974

For the next question, use this compound.
Could you tell me which refractive index is on file for "OCCCCO" ?
1.4431

---

Test: refractive index (Na D-line) (dimensionless)
Details: 303.15 K; 101.33 kPa; Liquid; Standard Abbe refractometry
Provide the reported refractive index of each item.
Give bare numbers.

compound="CC(O)CCO (stereo not given)" assay_endpoint="refractive index" readout_value=1.437
compound="CCC(C)O (stereo not given)" assay_endpoint="refractive index" readout_value=1.3931
compound="NC=O [formamide]" assay_endpoint="refractive index" readout_value=1.4459
compound=CCCCO assay_endpoint="refractive index" readout_value=1.3953

Please turn your attention to the following entry.
// refractive index lookup, key: "OCCCCO"
1.4411

---

Experiment: refractive index (Na D-line) (dimensionless)
Conditions: 313.15 K; 101.33 kPa; Liquid; Standard Abbe refractometry
assay_endpoint: refractive index
Numbers only.

Known refractive index results, listed for orientation:
compound="CCC(C)O (stereo not given) [butan-2-ol]" readout_value=1.3891
compound="CC(O)CCO (stereo not given) [1,3-butanediol]" readout_value=1.4329
compound="OCCCCO [1,4-butanediol]" readout_value=1.4372
compound="CCCCO [butan-1-ol]" readout_value=1.3913

Here's the next entry for you.
Reported refractive index for NC=O [formamide] : what is it?
1.4442
